Test system: p-ERK of PC-9 cells
assay-notes: p-ERK HTRF assay in PC-9 cells
Assay type: cell-based
applied-conditions: Homo sapiens, PC-9, 1 h, PC-9 lung cancer cells, 1 hour treatment, read-out: IC50, inhibitory activity on p-ERK of PC-9 cells
pIC50: −log10 of the molar value.
measure-name: pIC50

Some entries whose results are on file:
| structure-smiles | pIC50 |
| --- | --- |
| C[C@@H](Nc1ccnc2cnc(N3CCS(=O)(=O)CC3)cc12)c1cccc(C(F)F)c1F | ≥ 6.52 |
| C[C@@H](Nc1ccnc2cnc(C3(O)CCN(C(=O)NCCO)CC3)cc12)c1cccc(C(F)F)c1F | ≥ 6.52 |
| Cc1cc(N[C@H](C)c2cccc(C(F)F)c2F)c2cc(N3CCCS3(=O)=O)ncc2n1 | 6.00 to 6.52 |

Pending compound:
Exercise: Under p-ERK of PC-9 cells: pIC50 value of `CC(=O)N1CCN(c2cc(F)c3nccc(N[C@H](C)c4cccc(C(F)F)c4F)c3c2)CC1` ?
Solution: ≥ 6.52

###

Tested on: p-ERK of PC-9 cells
assay-notes: p-ERK HTRF assay in PC-9 cells
Type: cell-based
applied-conditions: Homo sapiens, PC-9, 1 h, PC-9 lung cancer cells, 1 hour treatment, read-out: IC50, inhibitory activity on p-ERK of PC-9 cells
pIC50: −log10 of the molar value.
measure-name: pIC50

Some entries whose results are on file:
| compound | pIC50 |
| --- | --- |
| C[C@@H](Nc1ccnc2cnc(C3(O)CCN(CCO)CC3)cc12)c1cccc(C#N)c1F | < 6.00 |
| CC(=O)N1CCN(c2cc3c(N[C@H](C)c4cccc(C(F)F)c4F)c(F)cnc3cn2)CC1 | ≥ 6.52 |
| CC(=O)N1CCC(O)(c2cc3c(N[C@H](C)c4cccc(C(F)F)c4F)ccnc3c(-c3cnn(C)c3)n2)CC1 | ≥ 6.52 |
| C[C@H](O)C(=O)N1CCC(O)(c2cc3c(N[C@H](C)c4cccc(C(F)F)c4F)ccnc3c(-c3cnn(C)c3)n2)CC1 | 6.00 to 6.52 |
| C[C@@H](Nc1ccnc2cnc(N3CCNCC3)cc12)c1cccc(C(F)F)c1F | 6.00 to 6.52 |

Exercise: Under p-ERK of PC-9 cells: pIC50 value of `CC(=O)N1CCC(O)(c2cc3c(N[C@H](C)c4cccc(C(F)(F)F)c4F)ccnc3cn2)CC1` ?
Solution: ≥ 6.52

Exercise: Item: Cc1nc(C2(O)CCC(O)CC2)cc2c(N[C@H](C)c3cccc(C(F)F)c3F)ccnc12 (stereo partly drawn)
Solution: 6.00 to 6.52

Exercise: Item: `C[C@@H](Nc1ccnc2cnc(C3(O)CCN(C(=O)C4COC4)CC3)cc12)c1cccc(C(F)F)c1F`
Solution: ≥ 6.52

###

Measured IC50 values are reported for all entries that follow.
System: p-ERK of PC-9 cells
assay-notes: p-ERK HTRF assay in PC-9 cells
Format: cell-based
applied-conditions: Homo sapiens, PC-9, 1 h, PC-9 lung cancer cells, 1 hour treatment, read-out: IC50, inhibitory activity on p-ERK of PC-9 cells

| molecule | IC50 |
| --- | --- |
| C[C@@H](Nc1ccnc2cnc(N3CCN(C(=O)C4CCOCC4)CC3)cc12)c1cccc(C(F)F)c1F | ≤ 300 nM |

Exercise: Field request: IC50 | item: `C[C@@H](Nc1ccnc2cnc(N3CCC(O)(CO)CC3)cc12)c1cccc(C(F)F)c1F`
Solution: ≤ 300 nM

Exercise: Item: `C[C@@H](Nc1ccnc2cnc(C3(O)CCN(C(=O)c4ccccn4)CC3)cc12)c1cccc(C(F)F)c1F`
Solution: 300 to 1000 nM

Exercise: Item: C[C@@H](Nc1ccnc2cnc(C3(O)CCC(O)CC3)cc12)c1cccc(C(C)(F)F)c1F (single isomer, unassigned) [Compound B-87-P1]
Solution: > 1000 nM

Exercise: Item: `COc1c(C2=CCN(C(C)=O)CC2)cc2c(N[C@H](C)c3cccc(C(F)F)c3F)ccnc2c1F`
Solution: 300 to 1000 nM

Exercise: Item: `C[C@@H](Nc1ccnc2cnc(C3(O)CCN(C(=O)Cc4cccnc4)CC3)cc12)c1cccc(C(F)F)c1F`
Solution: ≤ 300 nM
